For each of the molecules below, state its growth.
Test system: OVCAR-8 ovarian
Experiment: NCI-60 one-dose screen, 48 h (100 = growth as untreated, 0 = no growth, -100 = all killed)
Details: 10 µM unless noted
Compounds without any hit were thinned out: in the full panel of roughly 83,000, 20% have a hit. Active and inactive are the calls of the source. Rule for the calls: active = growth percent below 10; inactive = the rest.

Here is how some molecules turned out for growth.
[
  {
    "MOLECULE": "Brc1cccc(-c2cc(-c3ccc4c(c3)OCCO4)[nH]n2)c1",
    "PARAMETER": "growth",
    "TEST VALUE": "29.7% [25 µM] (inactive)"
  },
  {
    "MOLECULE": "O=C1Nc2ccccc2C12CC(c1ccc(Cl)cc1)=NN2 (centres undefined)",
    "PARAMETER": "growth",
    "TEST VALUE": "95.2% (inactive)"
  },
  {
    "MOLECULE": "COc1cc(OC)c(/C=C/C(=O)c2c(OC)cc(OC)cc2OC)c(OC)c1",
    "PARAMETER": "growth",
    "TEST VALUE": "17.6% (inactive)"
  }
]

For the molecule Clc1nc(Cl)c2c3c(sc2n1)CCCC3 , the measured growth on OVCAR-8 ovarian was 39.8% (inactive)

The measurements presented in this section are drawn from PubChem BioAssay (NCI).
